Source: patent US6875781B2

Provide the recorded IC50 for the entries that follow.
- study system: LPAAT-β (Homo sapiens, UniProt O15120)
- Construct: the full-length human LPAAT-β cDNA was amplified by PCR from the DNA template pCE9.LPAAT-β; poly-histidine tag (N); made in house; host or cells: Sf9 insect cells (baculovirus, pFastBac HTc); membrane fraction used
- Sequence (O15120 24-278): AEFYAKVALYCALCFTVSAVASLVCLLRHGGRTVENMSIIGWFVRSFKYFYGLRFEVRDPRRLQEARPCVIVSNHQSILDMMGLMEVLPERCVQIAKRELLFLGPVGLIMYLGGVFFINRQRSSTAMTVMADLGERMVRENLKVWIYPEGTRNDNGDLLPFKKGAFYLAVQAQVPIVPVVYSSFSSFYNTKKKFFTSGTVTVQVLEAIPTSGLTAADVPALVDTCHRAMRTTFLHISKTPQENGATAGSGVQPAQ
- measurement notes: LPAAT-β cell-free assay
- Type: biochemical
- assay context: Sf9 cell membrane overexpressing recombinant LPAAT-β
Numbers only, in µM.

Study these solved cases before continuing.
COc1ccc(Cl)cc1-c1cc(N)nc(Nc2ccc(C)cc2)c1 [Example 9] ... 0.24
CCOc1ccc(Cl)cc1-c1cc(N)nc(Nc2ccc(C=O)cc2)c1 [Example 12] ... 0.05
COc1ccc(Cl)cc1-c1cc(Nc2ccc(C)cc2)cc(NC(C)=O)n1 [Example 5] ... 34

Kindly give each listed record's IC50.
1. COc1ccc(Cl)cc1-c1cc(N)cc(Nc2ccc(C)cc2)n1 [Example 3]
2. CCOc1ccc(Cl)cc1-c1cc(N)nc(Nc2ccc(Cl)cc2)c1 [Example 11]
3. CCOc1ccc(Cl)cc1-c1cc(N)nc(Nc2ccc(CO)cc2)c1 [Example 13]
4. COc1ccc(Cl)cc1-c1cc(N)cc(Nc2ccc(Cl)cc2)n1 [Example 4]
5. CCOc1ccc(Cl)cc1-c1cc(N)nc(Nc2ccc(C)cc2)c1 [Example 10]

1: 29; 2: 0.05; 3: 0.1; 4: 6.5; 5: 0.49

Kindly give each listed record's IC50.
1. COc1ccc(Cl)cc1-c1cc(Nc2ccc(C)cc2)cc(N)n1 [Example 6]
2. COc1ccc(Cl)cc1-c1cc(Nc2ccc(Cl)cc2)cc(N)n1 [Example 7]
3. COc1ccc(Cl)cc1-c1cc(Nc2ccc(C)cc2)cc(Cl)n1 [Example 1]
4. COc1ccc(Cl)cc1-c1cc(N)nc(Nc2ccc(C=O)cc2)c1 [Example 14]
5. COc1ccc(Cl)cc1-c1cc(N)nc(Nc2ccc(Cl)cc2)c1 [Example 8]

1. 35
2. 18
3. 0.2
4. 0.26
5. 0.04
